- Tested on: d(5′-CGCGAATTCGCG-3′)2 (DNA, duplex) CGCGAATTCGCG
- PROTOCOL DESCRIPTION: ethidium bromide displacement, fluorescence quenching, double-log plot
- CONDITION DESCRIPTION: 100 mM phosphate; pH 7.0, 298 K; apparent; ethidium bromide displaced; 20 μM DNA
OBSERVATION TYPE: Kb

Request: Which Kb value belongs to `[Ru+2].[Ru+2].[Ru+2].c1cc[cH-]c1.c1cc[cH-]c1.c1cc[cH-]c1.c1ccc(-c2ccc(-c3ccc(-c4ccccc4)cc3)cc2)cc1` ?
Response: 2.803 ± 0.121 × 10^3 M^−1

Request: Reported Kb for `[Ru+2].c1cc[cH-]c1.c1ccc(-c2ccc(-c3ccc(-c4ccccc4)cc3)cc2)cc1` : what is it?
Response: 8.111 ± 0.001 × 10^3 M^−1

Request: Entry `[Ru+2].[Ru+2].c1cc[cH-]c1.c1cc[cH-]c1.c1ccc(-c2ccc(-c3ccccc3)cc2)cc1` has what Kb?
Response: 0.815 ± 0.001 × 10^3 M^−1

Request: Which Kb is listed for `[Ru+2].c1cc[cH-]c1.c1ccc(-c2ccccc2)cc1` ?
Response: 2.330 ± 0.001 × 10^3 M^−1

Request: Give the measured Kb of `[Ru+2].c1cc[cH-]c1.c1ccc(-c2ccc(-c3ccccc3)cc2)cc1` .
Response: 3.532 ± 0.001 × 10^3 M^−1

Request: Which Kb reading was recorded for the compound `[Ru+2].[Ru+2].c1cc[cH-]c1.c1cc[cH-]c1.c1ccc(-c2ccc(-c3ccc(-c4ccccc4)cc3)cc2)cc1` ?
Response: 5.933 ± 0.001 × 10^3 M^−1
